Measured inhibition accompanies every entry in the list below.
assay: BT084 cell growth, single and combined drugs, ICGC_MB145, cisplatin and BGB IC40 combos (AID 1671461); conditions: BT084 medulloblastoma cells, drug combinations, at 0.5 µM, stronger effect = higher value;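 note: cells exposed to drugs for 96 hours; 0% = vehicle DMSO and 100% = high DMSO full killing control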

[
  {
    "Molecule": "Nc1ncn(C2OC(CO)C(O)C2O)c(=O)n1 (stereo unspecified)",
    "inhibition / %": 10.9
  },
  {
    "Molecule": "N#Cc1ccc(OC2CCC(NC(=O)CCSc3nc4ccccc4c(=O)[nH]3)CC2)cc1 (stereo unspecified)",
    "inhibition / %": 0.647
  },
  {
    "Molecule": "C=C1C(=O)O[C@@H]2C=C(C)CCC=C(C)CC[C@@H]12",
    "inhibition / %": -5.97
  },
  {
    "Molecule": "Cc1cn(C2C=CC(CO)O2)c(=O)[nH]c1=O (stereo unspecified)",
    "inhibition / %": -17.7
  },
  {
    "Molecule": "CC(C)c1ccc(-c2cc(=O)c3ccccc3o2)cc1",
    "inhibition / %": -10.1
  },
  {
    "Molecule": "O=C(CCSc1nc2ccccc2c(=O)[nH]1)NC1CCC(c2nnc(-c3ccccc3)o2)CC1 (stereo unspecified)",
    "inhibition / %": -6.61
  },
  {
    "Molecule": "CO[C@H]1/C=C/O[C@@]2(C)Oc3c(C)c(O)c4c(O)c(c5c(c4c3C2=O)=NC2(CCN(CC(C)C)CC2)N=5)NC(=O)/C(C)=C\\C=C\\[C@H](C)[C@H](O)[C@@H](C)[C@@H](O)[C@@H](C)[C@H](OC(C)=O)[C@@H]1C",
    "inhibition / %": 0.406
  },
  {
    "Molecule": "Cn1cnc2[nH]c(=O)[nH]c(=O)c21",
    "inhibition / %": -17.3
  },
  {
    "Molecule": "NC(=O)c1cccc2cn(-c3ccc(C4CCCNC4)cc3)nc12 (stereo unspecified)",
    "inhibition / %": -8.13
  },
  {
    "Molecule": "O=c1cc(-c2ccc(O)cc2)[nH]c(=S)[nH]1",
    "inhibition / %": 6.07
  },
  {
    "Molecule": "C=C1CCC(O)CC1=CC=C1CCCC2(C)C1CCC2C(C)C=CC(C)C(C)C (stereo unspecified)",
    "inhibition / %": -17.5
  }
]

* * *

test: galactose survival enhancers in mitochondrial complex I cybrids – cell-based, galactose medium, ATP luminescence, primary screen (AID 1645843); settings: complex I mutant cybrid cells, 72 h, stronger effect = higher value;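 note: positive z means more ATP and so rescue of galactose-driven cybrid death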
# if value of z-score reaches 0.2, tag met; if it stays below, tag not met

[
  {
    "Molecule": "Cc1nsc(NC(=O)NCc2ccccc2-n2ccnc2C)n1",
    "Qualitative label": "not met"
  },
  {
    "Molecule": "Cc1cc(CN2CCN(C)C(CCO)C2)c2cccc(C)c2n1 (centres undefined)",
    "Qualitative label": "not met"
  },
  {
    "Molecule": "COCC1CCCN(Cc2cccc(-c3nc(-c4cccnc4)cc(=O)[nH]3)c2)C1 (centres undefined)",
    "Qualitative label": "not met"
  },
  {
    "Molecule": "CN1CC2c3ccccc3Oc3ccc(Cl)cc3C2C1 (centres undefined)",
    "Qualitative label": "not met"
  },
  {
    "Molecule": "N[C@@H]1CCCC[C@H]1N.O=C(O)C(=O)O.[Pt]",
    "Qualitative label": "met"
  },
  {
    "Molecule": "CCCCC1C(=O)N(C)CCN1C(=O)Nc1nnc(C(C)(C)C)s1 (centres undefined)",
    "Qualitative label": "not met"
  },
  {
    "Molecule": "Cc1cc2c(cc1Cl)N(C(=O)Nc1ccc(Oc3cccnc3C)nc1)CC2",
    "Qualitative label": "not met"
  },
  {
    "Molecule": "Cc1ccc2nc(-c3cnc(C(C)(C)C)nc3)cc(C(=O)N(C)C(C)C)c2c1",
    "Qualitative label": "not met"
  },
  {
    "Molecule": "COc1ccccc1C(=O)N1CCC(n2cc(-c3ccccn3)nn2)CC1",
    "Qualitative label": "not met"
  },
  {
    "Molecule": "OCCNc1ncnc2oc(-c3ccccc3)c(-c3ccccc3)c12",
    "Qualitative label": "not met"
  },
  {
    "Molecule": "COc1cc2c(cc1-c1nnc3ccccn13)OCO2",
    "Qualitative label": "not met"
  },
  {
    "Molecule": "CN1CCN(c2ccc3cc(Cl)ccc3n2)CC1=O",
    "Qualitative label": "not met"
  },
  {
    "Molecule": "O=C(NCc1ccccn1)c1cc(NCC2CC2)cc(S(=O)(=O)N2CCCC2)c1",
    "Qualitative label": "met"
  },
  {
    "Molecule": "COC(C)(C)CCCC(C)CCN1CCC(n2cc(C(C)(C)N)nn2)CC1 (centres undefined)",
    "Qualitative label": "not met"
  },
  {
    "Molecule": "COC(=O)CCN1CC(OCc2cccc(OC)c2)CN(C(=O)CCc2cccs2)CC1=O (centres undefined)",
    "Qualitative label": "met"
  },
  {
    "Molecule": "C[C@](Cc1ccc(O)c(O)c1)(NN)C(=O)O",
    "Qualitative label": "not met"
  },
  {
    "Molecule": "Cc1nc(C(C)Nc2ncnc3sccc23)cs1 (centres undefined)",
    "Qualitative label": "met"
  },
  {
    "Molecule": "O=c1cc(-c2ccccc2)[nH]c2nc(Cl)ccc12",
    "Qualitative label": "not met"
  },
  {
    "Molecule": "CCn1cnc(NC(=O)N(C)Cc2ccc(OC)cc2)n1",
    "Qualitative label": "met"
  },
  {
    "Molecule": "Cc1nn(C)cc1-c1ccnc(NCC(C)Oc2cccnc2)n1 (centres undefined)",
    "Qualitative label": "not met"
  },
  {
    "Molecule": "Cc1nn(C)c(C)c1-c1ccnc(N(C)Cc2cnn(C(C)C)c2)n1",
    "Qualitative label": "met"
  },
  {
    "Molecule": "OCCN1CC(O)C(O)C(O)C1CO (centres undefined)",
    "Qualitative label": "met"
  },
  {
    "Molecule": "O=C(C1CCCCCC1)N1CCC(Cn2cc(CCO)nn2)CC1",
    "Qualitative label": "not met"
  },
  {
    "Molecule": "CN1C(=O)N(Cc2ccccc2)C2(CCN(Cc3nc4ccccc4n3C)CC2)C1=O",
    "Qualitative label": "not met"
  }
]

* * *

target: L-lactate dehydrogenase (Plasmodium falciparum (isolate CDC / Honduras)); test: PfLDH activity inhibition – cell lysate, 3D7 strain, counter-screen for P. falciparum growth inhibition project (AID 2304);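 note: 0% = vehicle and 100% = reference inhibitor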; conditions: P. falciparum 3D7 crude extract, LDH APAD/NBT absorbance; at 2 µM; stronger effect = higher value

[
  {
    "Compound": "Oc1ccc2ccccc2c1C=NNc1nc(Nc2ccccc2)nc(N2CCOCC2)n1",
    "Unit abbrev": "%",
    "inhibition": -5
  },
  {
    "Compound": "CO[C@H](C)[C@H](NC(=O)[C@H](CC(C)C)[C@H](CCC(F)(F)F)N(O)C=O)C(=O)Nc1nccs1",
    "Unit abbrev": "%",
    "inhibition": 1
  },
  {
    "Compound": "Cc1[nH]c2c(c(=O)c1Cl)-c1ccc(Oc3cccc(C(F)(F)F)c3)cc1C2=O",
    "Unit abbrev": "%",
    "inhibition": 2
  },
  {
    "Compound": "O=[N+]([O-])c1cccc(-c2nc3ccc(C4=N[C@H]5CCCC[C@H]5N4)cc3[nH]2)c1",
    "Unit abbrev": "%",
    "inhibition": -7
  },
  {
    "Compound": "O=[N+]([O-])c1ccc(Nc2nc(NN=Cc3cc(Cl)cc(Cl)c3O)nc(Nc3ccccc3)n2)cc1",
    "Unit abbrev": "%",
    "inhibition": -6
  },
  {
    "Compound": "COc1cc(C=NNc2ccnc3cc(Cl)ccc23)ccc1O",
    "Unit abbrev": "%",
    "inhibition": -7
  },
  {
    "Compound": "CCn1c(C=Cc2cc(Br)ccc2O)nc2ccccc2c1=O",
    "Unit abbrev": "%",
    "inhibition": -5
  },
  {
    "Compound": "CCC[C@@H]([C@@H](CC1CCCCC1)C(=O)N[C@H](C(=O)Nc1ccccn1)[C@H](C)CC)N(O)C=O",
    "Unit abbrev": "%",
    "inhibition": 2
  },
  {
    "Compound": "Oc1ccc(C=NNC(=S)Nc2cccc3ccccc23)c(O)c1",
    "Unit abbrev": "%",
    "inhibition": -4
  },
  {
    "Compound": "CCC[C@@H]([C@@H](CC1CCCCC1)C(=O)N[C@H](C(=O)Nc1nccc(N)n1)C(C)(C)C)N(O)C=O",
    "Unit abbrev": "%",
    "inhibition": 5
  },
  {
    "Compound": "CC1CCC(C[C@@H](C(=O)N[C@@H](CCC(=O)N2CCCCC2)C(=O)Nc2nccs2)[C@H](C(C)C)N(O)C=O)CC1 (stereo partly drawn)",
    "Unit abbrev": "%",
    "inhibition": 7
  },
  {
    "Compound": "Oc1ccc(-c2nc(-c3ccc4oc5ccc(-c6[nH]c(-c7ccc(O)cc7)nc6-c6ccccc6)cc5c4c3)c(-c3ccccc3)[nH]2)cc1",
    "Unit abbrev": "%",
    "inhibition": 3
  },
  {
    "Compound": "ON=C1CCc2cc(-c3nc(-c4cccc(OCCNCc5ccc(F)cc5)c4)[nH]c3-c3ccncc3)ccc21",
    "Unit abbrev": "%",
    "inhibition": -3
  },
  {
    "Compound": "ON=C1CCc2cc(-c3cc(-c4ccc(OC5CCNCC5)cc4)oc3-c3ccncc3)ccc21",
    "Unit abbrev": "%",
    "inhibition": 3
  },
  {
    "Compound": "N=C(N)c1ccc(C=Cc2ccc(C(=N)N)cc2O)cc1",
    "Unit abbrev": "%",
    "inhibition": 4
  },
  {
    "Compound": "CC(C)C[C@@H](C(=O)N[C@H](C(=O)Nc1nccs1)C(C)(C)C)[C@H](CCC(F)(F)F)N(O)C=O",
    "Unit abbrev": "%",
    "inhibition": 5
  },
  {
    "Compound": "Nc1c2c(nc3ccccc13)C(=Cc1ccc(O)cc1)CCC2",
    "Unit abbrev": "%",
    "inhibition": 5
  },
  {
    "Compound": "Nc1ccc(-c2nc3cc(C4=N[C@H]5CCCC[C@H]5N4)ccc3o2)cc1[N+](=O)[O-]",
    "Unit abbrev": "%",
    "inhibition": 1
  }
]
